Value source: patent US20230183207A1

Tested on: SARS-CoV-2 strains JPN/TY/WK-521 and NCGM-nCoV-05-2N
run.description: microbe, parasite or virus in culture
Format: cell-based
test.context: Severe acute respiratory syndrome coronavirus 2, Vero C1008, read-out: IC50 against SARS-CoV-2
Listed compounds paired with reported pIC50
A value of pIC50 is the negative decimal logarithm of a concentration given in moles per litre.

Per the reported SARS-CoV-2 strains JPN/TY/WK-521 and NCGM-nCoV-05-2N data, CCC(CC)COC(=O)[C@H](C)N[P@](=O)(OC[C@H]1O[C@@](C#N)(c2ccc3c(N)ncnn23)[C@H](O)[C@@H]1O)Oc1ccccc1 [remdesivir] has pIC50 of 5.59

Tested system SARS-CoV-2 strains JPN/TY/WK-521 and NCGM-nCoV-05-2N; pIC50 recorded for C=CCn1ccc2c(C(=O)Oc3cncc(Cl)c3)cccc21 [GRL-0820S] was 4.82

Lab entry: SARS-CoV-2 strains JPN/TY/WK-521 and NCGM-nCoV-05-2N assay, compound O=C(Oc1cncc(Cl)c1)c1cccc2[nH]ccc12 [GRL-0920S] , pIC50 = 5.55
